Ref: patent US20260193264A1

Biological target: HiBiT-BRM fusion protein in stable HeLa cell line (Homo sapiens, UniProt P51531)
Construct: expressed in transfected cells
Sequence (P51531 whole entry, the tested form may be a part): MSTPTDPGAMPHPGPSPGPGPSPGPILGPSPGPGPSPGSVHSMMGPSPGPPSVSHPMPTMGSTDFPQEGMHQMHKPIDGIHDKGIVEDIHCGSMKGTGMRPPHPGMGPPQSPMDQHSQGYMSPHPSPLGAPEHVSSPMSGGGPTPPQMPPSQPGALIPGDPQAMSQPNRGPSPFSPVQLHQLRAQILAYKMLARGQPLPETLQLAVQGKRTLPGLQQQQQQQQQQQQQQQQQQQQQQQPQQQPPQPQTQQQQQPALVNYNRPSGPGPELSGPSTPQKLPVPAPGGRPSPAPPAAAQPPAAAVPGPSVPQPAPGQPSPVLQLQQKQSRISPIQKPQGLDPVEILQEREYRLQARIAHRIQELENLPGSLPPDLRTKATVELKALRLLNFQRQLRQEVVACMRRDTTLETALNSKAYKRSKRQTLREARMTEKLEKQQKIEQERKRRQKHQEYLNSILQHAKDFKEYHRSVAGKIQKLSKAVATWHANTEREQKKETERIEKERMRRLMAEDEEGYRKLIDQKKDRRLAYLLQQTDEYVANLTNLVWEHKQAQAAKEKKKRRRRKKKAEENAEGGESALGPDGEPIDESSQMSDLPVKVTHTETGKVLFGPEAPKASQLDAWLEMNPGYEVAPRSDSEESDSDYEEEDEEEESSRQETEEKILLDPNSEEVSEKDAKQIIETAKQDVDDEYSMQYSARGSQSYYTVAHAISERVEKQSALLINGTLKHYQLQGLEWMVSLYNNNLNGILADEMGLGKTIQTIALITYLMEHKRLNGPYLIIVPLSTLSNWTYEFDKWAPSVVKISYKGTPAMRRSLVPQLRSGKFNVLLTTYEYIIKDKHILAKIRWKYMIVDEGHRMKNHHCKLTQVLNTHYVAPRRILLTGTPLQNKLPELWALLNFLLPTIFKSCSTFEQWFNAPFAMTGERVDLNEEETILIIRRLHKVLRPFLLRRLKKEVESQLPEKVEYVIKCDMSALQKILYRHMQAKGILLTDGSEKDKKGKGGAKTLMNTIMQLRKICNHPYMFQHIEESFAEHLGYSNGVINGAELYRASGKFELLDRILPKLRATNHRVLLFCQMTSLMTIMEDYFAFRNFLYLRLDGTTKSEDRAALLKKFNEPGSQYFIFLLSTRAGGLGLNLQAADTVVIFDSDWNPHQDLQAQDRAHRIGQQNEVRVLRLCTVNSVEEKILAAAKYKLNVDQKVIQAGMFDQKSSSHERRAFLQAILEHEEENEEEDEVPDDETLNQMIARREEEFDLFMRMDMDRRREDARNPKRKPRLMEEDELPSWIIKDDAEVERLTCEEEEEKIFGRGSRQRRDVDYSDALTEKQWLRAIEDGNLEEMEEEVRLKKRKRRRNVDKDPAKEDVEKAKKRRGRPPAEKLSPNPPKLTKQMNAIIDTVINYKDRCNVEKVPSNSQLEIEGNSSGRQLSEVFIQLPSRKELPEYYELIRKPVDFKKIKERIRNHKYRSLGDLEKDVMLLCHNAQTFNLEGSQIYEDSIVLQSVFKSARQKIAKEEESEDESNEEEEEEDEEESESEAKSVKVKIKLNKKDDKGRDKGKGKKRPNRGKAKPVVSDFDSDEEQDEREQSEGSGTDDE
Experiment: HiBiT-BRM cell-based degradation assay (Nano-Glo HiBiT Lytic Detection, 24 h)
Parameters: scale not given here
Conditions: HeLa HiBiT-BRM cells, read-out: BRM HiBit Degradation IC50
Quick reference: DC50 of the listed items.

[
  {
    "Compound": "CC(C)[C@@H](C(=O)N1C[C@H](O)C[C@H]1C(=O)N[C@@H](C)c1ccc(F)cc1)n1cc(-c2ccc3nnc(-c4cccc(F)c4O)cc3c2)nn1 [Compound 177]",
    "Readout label": "DC50",
    "Result": "< 0.01 µM"
  },
  {
    "Compound": "Cc1ncsc1-c1ccc([C@H](C)NC(=O)[C@@H]2C[C@@H](O)CN2C(=O)C(C(C)C)n2cc(N3CCC(C4CN(c5ccc6nnc(-c7ccccc7O)cc6c5)C4)C3)nn2)cc1 (some centres unmarked) [Compound 269]",
    "Readout label": "DC50",
    "Result": "< 0.01 µM"
  },
  {
    "Compound": "Cc1ncsc1-c1ccc([C@H](C)NC(=O)[C@@H]2C[C@@H](O)CN2C(=O)[C@@H](c2cc(-c3cnc(N4CC[C@@H](c5ccc6nnc(-c7ccccc7O)cc6c5)C4)nc3)no2)C(C)C)cc1 [Compound 50]",
    "Readout label": "DC50",
    "Result": "< 0.01 µM"
  }
]

Form: item Cc1ncsc1-c1ccc([C@H](C)NC(=O)[C@@H]2C[C@@H](O)CN2C(=O)C(C(C)C)n2cc(N3CCCC(CN4CCN(c5ccc6cc(-c7ccccc7O)nnc6c5)CC4)C3)nn2)cc1 (some centres unmarked) [Compound 261] ; test system HiBiT-BRM fusion protein in stable HeLa cell line (Homo sapiens, UniProt P51531); DC50: > 0.01 µM

Case Cc1ncsc1-c1ccc([C@H](C)NC(=O)[C@@H]2C[C@@H](O)CN2C(=O)[C@@H](c2cc(N3CCC[C@@H](c4ccc5nnc(-c6ccccc6O)cc5c4)C3)no2)C(C)C)cc1 [Compound 101] , HiBiT-BRM fusion protein in stable HeLa cell line (Homo sapiens, UniProt P51531), DC50 recorded as > 0.01 µM
